# Procedure Text: Selectivity index, ratio of IC50 of mouse BALB/3T3 cells to IC50 of human LoVo cells
# Type: toxicity
# Test Settings: BALB/3T3 cells versus LoVo cells, read-out: Ratio IC50
Below is a list of entries, each paired with its recorded selectivity ratio value.
Number only, no unit.

Completed entries (count: 4):
{"Smiles Text": "COc1c(Br)c2c(c(OC)c1OC)-c1ccc(SC)c(=O)cc1[C@@H](N)CC2", "selectivity ratio": 10.1}
{"Smiles Text": "CCN(CC)C(=O)N[C@H]1CCc2c(Br)c(OC)c(OC)c(OC)c2-c2ccc(SC)c(=O)cc21", "selectivity ratio": 1.5}
{"Smiles Text": "COc1c(Br)c2c(c(OC)c1OC)-c1ccc(SC)c(=O)cc1[C@@H](NC(=O)C(C)C)CC2", "selectivity ratio": 2.9}
{"Smiles Text": "CCCCCCCCCC(=O)N[C@H]1CCc2c(Br)c(OC)c(OC)c(OC)c2-c2ccc(SC)c(=O)cc21", "selectivity ratio": 0.2}

# context switch: different molecule, same selectivity ratio
Task: Consider the molecule shown here: COc1c(Br)c2c(c(OC)c1OC)-c1ccc(SC)c(=O)cc1[C@@H](NC(=O)CCCCl)CC2 What is its recorded selectivity ratio?
Result: 5.3
